Target: His6-tagged ClpC1-NTD substrate, M. smegmatis ClpC1P1P2 (UniProt A0R574+P9WPC9)
Sequence (P9WPC9 1-156, looked up, natural form): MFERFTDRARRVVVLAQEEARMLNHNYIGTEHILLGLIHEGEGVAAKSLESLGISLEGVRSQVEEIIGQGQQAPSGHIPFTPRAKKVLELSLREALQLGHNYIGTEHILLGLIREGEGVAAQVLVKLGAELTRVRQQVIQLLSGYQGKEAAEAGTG
Sequence (A0R574 whole entry): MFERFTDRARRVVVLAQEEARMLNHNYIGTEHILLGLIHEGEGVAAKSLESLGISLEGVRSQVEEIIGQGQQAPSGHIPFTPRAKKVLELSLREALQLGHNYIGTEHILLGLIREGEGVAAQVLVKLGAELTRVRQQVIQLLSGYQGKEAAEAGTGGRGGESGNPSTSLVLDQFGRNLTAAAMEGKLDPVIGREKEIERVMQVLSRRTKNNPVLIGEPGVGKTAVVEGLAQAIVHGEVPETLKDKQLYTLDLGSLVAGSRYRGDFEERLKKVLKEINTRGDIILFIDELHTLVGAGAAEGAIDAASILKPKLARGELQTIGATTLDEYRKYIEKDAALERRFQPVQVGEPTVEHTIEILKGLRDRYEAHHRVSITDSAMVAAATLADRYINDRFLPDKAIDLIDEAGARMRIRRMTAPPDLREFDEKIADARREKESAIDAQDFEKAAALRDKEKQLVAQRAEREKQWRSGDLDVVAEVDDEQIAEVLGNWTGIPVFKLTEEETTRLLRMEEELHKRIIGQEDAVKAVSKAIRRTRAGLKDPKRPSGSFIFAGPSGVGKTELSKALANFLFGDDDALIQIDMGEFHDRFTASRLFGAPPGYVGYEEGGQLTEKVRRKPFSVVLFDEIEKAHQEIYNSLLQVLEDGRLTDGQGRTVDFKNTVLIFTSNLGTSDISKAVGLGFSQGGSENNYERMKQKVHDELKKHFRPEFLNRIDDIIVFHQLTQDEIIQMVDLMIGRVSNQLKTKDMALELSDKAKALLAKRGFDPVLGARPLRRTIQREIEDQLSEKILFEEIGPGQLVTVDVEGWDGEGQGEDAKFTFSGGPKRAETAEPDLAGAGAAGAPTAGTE
Assay: biochemical
Format: biochemical
Conditions: Msm; Measurement 1-6; read-out: 1-Dmax, single measurements
experimental-endpoint: 1-Dmax (percent substrate remaining at maximal degradation) (%)

| smiles-entry | measure-unit | numeric-result |
| --- | --- | --- |
| CO[C@H](c1ccccc1)[C@@H]1NC(=O)[C@H](C)NC(=O)[C@H](C[C@@H](C)CO)N(C)C(=O)[C@H](Cc2cn(Cc3cn(CCCCCn4cc(Cn5cc(C[C@@H]6NC(=O)[C@H](C(C)C)NC(=O)[C@H](CC(C)C)N(C)C(=O)[C@H](C(C)C)NC(=O)[C@H]([C@H](OC)c7ccccc7)NC(=O)[C@H](C)NC(=O)[C@H](C[C@@H](C)CO)N(C)C6=O)c6ccccc65)nn4)nn3)c3ccccc23)NC(=O)[C@H](C(C)C)NC(=O)[C@H](CC(C)C)N(C)C(=O)[C@H](C(C)C)NC1=O | % | 54.7 |

Value source: paper PMC10914731
